- Tested on: LXRa homodimer (NR concentration 270 nM)
- Experimental protocol: PBM binding z-score (relative to random genomic background probes); higher = stronger binding; sequences stand for … in GC…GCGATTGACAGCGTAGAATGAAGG
Listed here are sequences together with their documented PBM binding z-score.

// known answers, use as guide
Primary sequence	PBM binding z-score
CGTCAAAGTTCCACTAAGGTAACGTAAAGCACGC	-0.0633
GCTATTAGTGGAAAGGGCAACCGAATGATTCTCG	-0.215
ACTAGTTGGTCAGCTGAGCTCACACACAATTCGG	-0.563
CCTAGTTGGTCAAGGTCGCACACGCTATAGGTAC	0.275
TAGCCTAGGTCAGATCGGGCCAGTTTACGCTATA	-0.49

Need PBM binding z-score of TCTAGTTGGTCACGGTGGTCACACACGACGGGTA , thanks. -0.00168

Need PBM binding z-score of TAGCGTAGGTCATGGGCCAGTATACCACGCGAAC , thanks. 0.0742

====

- Test system: PPARg DBDmut IVT, anti-PPARg (DBD mutation: PPARg1 K132A/R137A, NR concentration 270 nM)
- Experimental protocol: PBM binding z-score (relative to random genomic background probes); higher = stronger binding; sequences stand for … in GC…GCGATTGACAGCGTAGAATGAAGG
Mark condition met for reported PBM binding z-score of -0.4 or greater; mark condition not met for anything smaller.

# example entries with known answers
Primary sequence	Assigned category
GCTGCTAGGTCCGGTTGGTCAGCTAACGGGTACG	condition not met
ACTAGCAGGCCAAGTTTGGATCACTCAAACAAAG	condition not met
GATACAGGGTCAGCTAGAAGCCAGAGTATGGAAA	condition met

Given the entry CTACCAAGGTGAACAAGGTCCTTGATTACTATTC , answer whether its PBM binding z-score meets or surpasses -0.4. condition met

Given the entry TCTGCTAGGTCAACGATGGTCAGCTACTCTGCTA , answer whether its PBM binding z-score meets or surpasses -0.4. condition not met

Given the entry CGTCAAAGCTCAAGGTAACGTAACAGAAAGCAGC , answer whether its PBM binding z-score meets or surpasses -0.4. condition met

Given the entry CGAACGATGGCATGAGTTGATAGCAAATGCCGAT , answer whether its PBM binding z-score meets or surpasses -0.4. condition met

Given the entry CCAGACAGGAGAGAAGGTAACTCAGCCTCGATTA , answer whether its PBM binding z-score meets or surpasses -0.4. condition met

Given the entry GCCCGGAGGACAAGGTCAGAGCTTTGTCCGTAGA , answer whether its PBM binding z-score meets or surpasses -0.4. condition not met

====

- Tested on: PXR:RXRa (NR concentration 270 nM, RXRa partner concentration 90 nM)
- Experimental protocol: PBM binding z-score (relative to random genomic background probes); higher = stronger binding; sequences stand for … in GC…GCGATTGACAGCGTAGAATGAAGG
Measure name: PBM binding z-score
Please state the value as a number alone, without comment.

Primary sequence	Target desc	PBM binding z-score
CAAACTAGGTCACCGGAAGGTCAAATTCCGCATG	PXR:RXRa (NR concentration 270 nM, RXRa partner concentration 90 nM)	6.11

Need PBM binding z-score of ATACCCAGGTGATCGTGAGGTCGTTGATACTAAC , thanks. 2.35

====

- Test system: RARg homodimer (NR concentration 270 nM)
- Experimental protocol: PBM binding z-score (relative to random genomic background probes); higher = stronger binding; sequences stand for … in GC…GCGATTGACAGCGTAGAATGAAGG
Measure name: PBM binding z-score
Please state the value as a number alone, without comment.

// known answers, use as guide
Primary sequence	PBM binding z-score
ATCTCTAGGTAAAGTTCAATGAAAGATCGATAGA	2.91
CCGTCTGGGGCAGAAAGGTTACCATACCATCCGG	0.979
TATACAGGGTCAAAGGCCAGAGAACGAATGTCGA	5.34
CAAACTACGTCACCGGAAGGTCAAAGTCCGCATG	2.91
TGAATGAGGTTAAAGCTCAGGGAACGTGGCGTCG	0.981

Need PBM binding z-score of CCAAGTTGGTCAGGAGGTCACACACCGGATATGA , thanks. 4.59

Need PBM binding z-score of CCGACTGGGGCATAAGGTTACCATGAGCCAGCCC , thanks. 0.826

====

- Test system: PPARg DBDmut:RXRa IVT, anti-PPARg (DBD mutation: PPARg1 K132A/R137A, NR concentration 270 nM, RXRa partner concentration 90 nM)
- Experimental protocol: PBM binding z-score (relative to random genomic background probes); higher = stronger binding; sequences stand for … in GC…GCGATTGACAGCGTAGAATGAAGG
Measure name: PBM binding z-score

// known answers, use as guide
Primary sequence	PBM binding z-score
CCTCGGAGGAAAGAAGGTCAGAGCTGTCCGCTTT	-2.12
TTACCGAGGTGAAGGTCGTTGATCCCTCTGTAGA	0.416
ACAGACAGGGGAGTGAAGGTAACTCAGCTGGACG	0.22
GGAACGAGGGAATTCGAGTTGATAGCATGGCGAT	-0.28
CGTCCAAGGTAAGCAGGTCAGTGAAAGCGACGTG	-0.624

We next turn to a different sequence, shown below.
Need PBM binding z-score of TCTGGGAGGACACGAAAGGTCAGAGCTCGACATC , thanks. 0.0227

====

- Test system: RARg homodimer (NR concentration 270 nM)
- Experimental protocol: PBM binding z-score (relative to random genomic background probes); higher = stronger binding; sequences stand for … in GC…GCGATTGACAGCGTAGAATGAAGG
Mark condition met for reported PBM binding z-score of 2 or greater; mark condition not met for anything smaller.

# example entries with known answers
Primary sequence	Assigned category
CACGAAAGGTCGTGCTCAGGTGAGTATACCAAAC	condition met
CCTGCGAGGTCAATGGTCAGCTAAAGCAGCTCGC	condition met
GATACAGGATCAGCTAGAGGCCAGAGTATGGAAA	condition not met
TATACAGGGTCAAAGGCCGGAGTACGAATGTCGA	condition met
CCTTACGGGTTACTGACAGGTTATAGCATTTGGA	condition not met
CCTCGGAGGACAACAGGTGGTCAGAGCTGCCAGA	condition not met
CCAGACACGTGAAAGGTAACTCAGTCTGGTACGC	condition not met
AGAATGAGGTTATACGTACATCAGGGAAGAAAGT	condition not met
TCTAGCAGGACAGAGGGTCACTCAAGAGGTACGG	condition met
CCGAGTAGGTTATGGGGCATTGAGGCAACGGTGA	condition not met

Shift focus to the following entry.
Given the entry ATCGAAATGTCGAAGGTGAGTATACCCACCCGAA , answer whether its PBM binding z-score meets or surpasses 2. condition not met

====

- System: RARg homodimer (NR concentration 270 nM)
- Experimental protocol: PBM binding z-score (relative to random genomic background probes); higher = stronger binding; sequences stand for … in GC…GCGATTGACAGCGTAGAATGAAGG
Measure name: PBM binding z-score

// known answers, use as guide
Primary sequence	Target desc	Assay result
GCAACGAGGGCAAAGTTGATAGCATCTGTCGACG	RARg homodimer (NR concentration 270 nM)	1.57
GCGACTGGGGCATCAGCAGGCTACCATAACTTAA	RARg homodimer (NR concentration 270 nM)	0.15
CCTTACGGGTCAAGCTTATAGCACGGGTGGTACG	RARg homodimer (NR concentration 270 nM)	4.64

We next turn to a different sequence, shown below.
Param readout = PBM binding z-score; param system = RARg homodimer (NR concentration 270 nM); param query = TCTATTAGTCGATTAGGGCAACCGAAACAGCGGA ; response: value 0.468

====

- Test system: PPARg DBDmut:RXRa IVT, anti-PPARg (DBD mutation: PPARg1 K132A/R137A, NR concentration 270 nM, RXRa partner concentration 90 nM)
- Experimental protocol: PBM binding z-score (relative to random genomic background probes); higher = stronger binding; sequences stand for … in GC…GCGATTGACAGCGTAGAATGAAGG
Mark yes for reported PBM binding z-score of 0.6 or greater; mark no for anything smaller.

# example entries with known answers
Primary sequence	Assigned category
CCTTACGGGTCATTGACAGGTTATAGCATTTGGA	yes
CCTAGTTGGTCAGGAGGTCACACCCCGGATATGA	no
AGAATGAAGTTATTAAGATCAGGGAATTGCGGTC	no
ATCTCTAGGTAAAAGTACAGTGAATCCCGAGGAT	yes
AGAACGAGGGCACGCTGAGTCGATAGCAGAGTAG	no
TCTTGTAGATCAACAGGGGGTTAAGAAAGATCGA	yes
CTCGAAAGTTCGTGCTCAGGTGAGTATACCAAAC	no
CCTACTGAGCCATTCAGAGGTCATTGATCATATG	no

Given the entry CTCTAAAGGTCGTGCTCAGGTGAGTATACCAAAC , answer whether its PBM binding z-score meets or surpasses 0.6. yes

Given the entry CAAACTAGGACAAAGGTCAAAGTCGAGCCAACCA , answer whether its PBM binding z-score meets or surpasses 0.6. yes

Given the entry ATCTCTAGGTAAGACTCAGTTCAGTGTAGAACGC , answer whether its PBM binding z-score meets or surpasses 0.6. yes

Given the entry CCCAGCAGGCCAGGGTCACTCAAGCATTTCGCTT , answer whether its PBM binding z-score meets or surpasses 0.6. no

Given the entry CAAACTAGGTCCCGAAAGGTCAAAGTCGAATGAC , answer whether its PBM binding z-score meets or surpasses 0.6. no
